Source of measurements: patent US8124637B2

System: SF-295
Measurement Description: NCI 60-cell drug screen, one dose
Format: cell-based, human
Condition Context: CNS Cancer SF-295, 1.00E−5 Molar

Compound Smiles: O=C1c2ccccc2C(=O)c2c1ccc1nc(CN3CCN(c4ccccc4)CC3)[nH]c21
Study System: SF-295
Growth Percent / %: 105.37

Compound Smiles: CN1CCN(Cc2nc3ccc4c(c3[nH]2)C(=O)c2ccccc2C4=O)CC1
Study System: SF-295
Growth Percent / %: 81.61

Compound Smiles: CCN(CC)Cc1nc2ccc3c(c2[nH]1)C(=O)c1ccccc1C3=O
Study System: SF-295
Growth Percent / %: 89.56

Compound Smiles: CN(CCc1ccccn1)Cc1nc2ccc3c(c2[nH]1)C(=O)c1ccccc1C3=O
Study System: SF-295
Growth Percent / %: 105.86

Compound Smiles: O=C1c2ccccc2C(=O)c2c1ccc1nc(CN3CCN(c4ccccn4)CC3)[nH]c21
Study System: SF-295
Growth Percent / %: 92.70

----------
System: PC-3
Measurement Description: NCI 60-cell drug screen, one dose
Assay type: cell-based, human
Condition Context: Prostate Cancer PC-3, 1.00E−5 Molar
The reader will find reported Growth Percent values listed item by item below.
Endpoint: Growth Percent (%)

Compound Smiles: O=C1c2ccccc2C(=O)c2c1ccc1nc(CN3CCCCC3)[nH]c21
Unit Symbol: %
Measured Value: 81.94
--
Compound Smiles: O=C1c2ccccc2C(=O)c2c1ccc1nc(CN3CCN(c4ccccn4)CC3)[nH]c21
Unit Symbol: %
Measured Value: 89.10
--
Compound Smiles: CN(CCc1ccccn1)Cc1nc2ccc3c(c2[nH]1)C(=O)c1ccccc1C3=O
Unit Symbol: %
Measured Value: 99.83
--
Compound Smiles: O=C1c2ccccc2C(=O)c2c1ccc1nc(CN3CCN(c4ccccc4)CC3)[nH]c21
Unit Symbol: %
Measured Value: 77.91

----------
Measurement Description: MTT assay (relative cell survival), H1299
Condition Context: human, H1299 non-small cell lung cancer cells (PhTERT-SEAP), Relative MTT viability (%), 1 μM
The reader will find reported viability at 72 h, 1 µM values listed item by item below.

Compound Smiles: O=C1c2ccccc2C(=O)c2c1ccc1nc(CNCc3ccc4c(c3)OCO4)[nH]c21
viability at 72 h, 1 µM, %: 109
//
Compound Smiles: CC1CCN(Cc2nc3ccc4c(c3[nH]2)C(=O)c2ccccc2C4=O)CC1
viability at 72 h, 1 µM, %: 114
//
Compound Smiles: CN1CCN(CCc2nc3ccc4c(c3[nH]2)C(=O)c2ccccc2C4=O)CC1
viability at 72 h, 1 µM, %: 87.2
//
Compound Smiles: CN1CCN(Cc2nc3ccc4c(c3[nH]2)C(=O)c2ccccc2C4=O)CC1
viability at 72 h, 1 µM, %: 87.4
//
Compound Smiles: O=C1c2ccccc2C(=O)c2c1ccc1nc(CCN3CCN(c4ncccn4)CC3)[nH]c21
viability at 72 h, 1 µM, %: 90.7
//
Compound Smiles: O=C1c2ccccc2C(=O)c2c1ccc1nc(CN3CCCCC3)[nH]c21
viability at 72 h, 1 µM, %: 111
//
Compound Smiles: O=C1c2ccccc2C(=O)c2c1ccc1nc(CNCc3ccc(C(F)(F)F)cc3)[nH]c21
viability at 72 h, 1 µM, %: 74.3
//
Compound Smiles: O=C1c2ccccc2C(=O)c2c1ccc1nc(CNCc3ccccc3C(F)(F)F)[nH]c21
viability at 72 h, 1 µM, %: 98.5
//
Compound Smiles: O=C1c2ccccc2C(=O)c2c1ccc1nc(CN3CCOCC3)[nH]c21
viability at 72 h, 1 µM, %: 89.8
//
Compound Smiles: O=C1c2ccccc2C(=O)c2c1ccc1nc(CCN3CCN(c4ccccn4)CC3)[nH]c21
viability at 72 h, 1 µM, %: 98
//
Compound Smiles: O=C1c2ccccc2C(=O)c2c1ccc1nc(CCN3CCN(Cc4ccccc4)CC3)[nH]c21
viability at 72 h, 1 µM, %: 95.6
//
Compound Smiles: O=C1c2ccccc2C(=O)c2c1ccc1nc(CN3CCCCCC3)[nH]c21
viability at 72 h, 1 µM, %: 104
//
Compound Smiles: CCN(C)Cc1nc2ccc3c(c2[nH]1)C(=O)c1ccccc1C3=O
viability at 72 h, 1 µM, %: 98.9
//
Compound Smiles: CCN(CC)Cc1nc2ccc3c(c2[nH]1)C(=O)c1ccccc1C3=O
viability at 72 h, 1 µM, %: 101
//
Compound Smiles: O=C1c2ccccc2C(=O)c2c1ccc1nc(CN3CCSCC3)[nH]c21
viability at 72 h, 1 µM, %: 91.8
//
Compound Smiles: O=C1c2ccccc2C(=O)c2c1ccc1nc(CN3CCN(Cc4ccccc4)CC3)[nH]c21
viability at 72 h, 1 µM, %: 92.6
//
Compound Smiles: O=C1c2ccccc2C(=O)c2c1ccc1nc(CN3CCN(c4ncccn4)CC3)[nH]c21
viability at 72 h, 1 µM, %: 85.5
//
Compound Smiles: O=C1c2ccccc2C(=O)c2c1ccc1nc(CN3CCSC3)[nH]c21
viability at 72 h, 1 µM, %: 89.3
//
Compound Smiles: CN(CCc1ccccn1)Cc1nc2ccc3c(c2[nH]1)C(=O)c1ccccc1C3=O
viability at 72 h, 1 µM, %: 104
//
Compound Smiles: COc1cccc(CN(C)Cc2nc3ccc4c(c3[nH]2)C(=O)c2ccccc2C4=O)c1
viability at 72 h, 1 µM, %: 96.6
//
Compound Smiles: CCN1CCN(Cc2nc3ccc4c(c3[nH]2)C(=O)c2ccccc2C4=O)CC1
viability at 72 h, 1 µM, %: 86.2
//
Compound Smiles: O=C1c2ccccc2C(=O)c2c1ccc1nc(CN3CCC4(CC3)OCCO4)[nH]c21
viability at 72 h, 1 µM, %: 103
//
Compound Smiles: O=C1c2ccccc2C(=O)c2c1ccc1nc(CN(Cc3ccccn3)Cc3ccccn3)[nH]c21
viability at 72 h, 1 µM, %: 101
//
Compound Smiles: CN(Cc1nc2ccc3c(c2[nH]1)C(=O)c1ccccc1C3=O)CC1OCCO1
viability at 72 h, 1 µM, %: 104
